Assay: Microsomal stability (rat)
Assay type: in vitro ADME
Details: rat liver microsomes 0.5 mg/mL; read-out: Microsomal stability (in vitro CLint), Rat
valueType: microsomal CLint (µL/min/mg)

1) CC(C)(C)NC[C@H](O)c1cccc(C#N)n1    2.53
2) CC(C)(C)NC[C@H](O)c1cccc(C(F)(F)F)n1    3.48

====

Molecular target: UniProtKB P08588
Sequence (P08588 whole entry): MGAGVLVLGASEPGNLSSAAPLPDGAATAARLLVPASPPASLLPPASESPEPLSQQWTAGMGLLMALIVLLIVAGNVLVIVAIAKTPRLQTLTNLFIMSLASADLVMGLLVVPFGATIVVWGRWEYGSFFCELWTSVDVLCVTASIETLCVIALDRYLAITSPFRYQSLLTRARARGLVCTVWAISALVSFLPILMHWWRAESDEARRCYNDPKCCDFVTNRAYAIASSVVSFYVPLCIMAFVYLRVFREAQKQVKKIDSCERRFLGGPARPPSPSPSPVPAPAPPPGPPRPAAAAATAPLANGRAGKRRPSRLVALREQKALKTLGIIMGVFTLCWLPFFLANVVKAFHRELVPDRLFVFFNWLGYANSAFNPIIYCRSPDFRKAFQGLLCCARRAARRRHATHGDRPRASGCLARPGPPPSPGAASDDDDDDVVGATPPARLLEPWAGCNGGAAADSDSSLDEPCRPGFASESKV
Assay: cAMP Gs dynamic HTRF assay, β1 expressing CHO cells
valueType: EC50

1) COc1ccc(C[C@@H](C)NC[C@H](O)c2ccc(C3CC3)nc2C)cc1    0.01 to 0.1 µM

====

Assay: Microsomal stability (human)
Assay type: in vitro ADME
Conditions: human liver microsomes 0.5 mg/mL; read-out: Microsomal stability (in vitro CLint), Human
Description: The master solution was prepared as follows. Two separate experiments were performed as follows: With NADPH: 10 μL of 20 mg/mL liver microsomes and 40 μL of 10 mM NADPH were added to the incubations. […] Peak areas were determined from extracted ion chromatograms. The slope value, k, was determined by linear regression of the natural logarithm of the remaining percentage of the parent drug vs. incubation time curve. The in vitro half-life (in vitro t1/2) was determined from the slope value: […]
valueType: microsomal CLint (µL/min/mg)

1. CC(C)(C)NC[C@H](O)c1cccc(C(F)(F)F)n1 [Compound 03-3]    3.49
2. CC(C)(C)NC[C@H](O)c1cccc(C#N)n1 [Compound 03-5]    2.96
